- Method summary: UDPGA-dependent metabolic stability in dog liver microsomes
- Type: in vitro ADME
- Measurement parameters: dog, liver microsomes, pH 7.4, dog liver microsomes, NADPH +
Observable: half-life at 100 µM (min)

1. COc1cc(O)c2c(c1)OC(c1ccc(O)cc1)CC2=O (racemic) [SKN, (+/−) 7-O-methylnaringenin] ... 5.8

---

- Measurement target: UGT1A6 (Homo sapiens)
- Construct: The typical incubation mixture contained human liver microsomes (0.5 mg/mL) along with SKN (10 μM); tissue BD Gentest; host or cells: human liver microsomes
- Sequence (P19224 27-532): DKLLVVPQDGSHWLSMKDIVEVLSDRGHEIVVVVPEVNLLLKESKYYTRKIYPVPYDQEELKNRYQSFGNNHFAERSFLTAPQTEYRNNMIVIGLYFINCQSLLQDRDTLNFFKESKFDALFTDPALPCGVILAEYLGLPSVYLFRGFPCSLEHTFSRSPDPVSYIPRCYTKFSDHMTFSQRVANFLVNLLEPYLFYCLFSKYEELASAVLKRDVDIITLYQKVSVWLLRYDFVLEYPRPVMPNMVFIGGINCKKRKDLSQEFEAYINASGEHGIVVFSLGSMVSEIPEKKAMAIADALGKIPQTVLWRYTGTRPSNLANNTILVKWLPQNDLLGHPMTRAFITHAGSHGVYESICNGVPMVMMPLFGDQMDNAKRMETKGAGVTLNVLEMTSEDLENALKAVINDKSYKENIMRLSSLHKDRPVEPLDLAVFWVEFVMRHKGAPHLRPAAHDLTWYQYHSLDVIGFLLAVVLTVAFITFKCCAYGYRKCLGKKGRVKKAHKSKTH
- Method summary: UGT inhibition in human liver microsomes, 1-naphthol β-D-glucuronidation (NPG)
- Assay type: in vitro ADME
- Measurement parameters: pH 7.4, probe 1-naphthol (200 μM), SKN 10 μM, 15 min pre-incubation, read-out: % Inhibition in Pre-Incubation
Observable: inhibition at 10 μM

1) COc1cc(O)c2c(c1)OC(c1ccc(O)cc1)CC2=O (racemic) [SKN, (+/−) 7-O-methylnaringenin] ... 10.1%
